Please respond with reported hemolysis at 2000 µM for every item in the list.
experiment-summary: Toxicity in rat erythrocytes assessed as hemolysis at 2 mM
Type: cell-based, Erythrocyte
condition-description: read-out: Activity
Lab book: enter the figure in %, no units written.

Request: Reported hemolysis at 2000 µM for CC(C)=CCC[C@@H](C)[C@H]1[C@@H](O)[C@@H]2C(C)=CC[C@H]2[C@@](C)(O)C[C@H]1O : what is it?
Response: 1.1

Request: Reported hemolysis at 2000 µM for O=C1O[C@H]([C@@H](O)CO)C(O)=C1O : what is it?
Response: 0.85

Request: Reported hemolysis at 2000 µM for C/C1=C\[C@@H](O)C/C(C)=C/C[C@]2(C)CCC(C(C)C)=C2CC1 [DOLABELLATRIENOL] : what is it?
Response: 5.75

Request: Reported hemolysis at 2000 µM for CC(C)=CCC[C@@H](C)[C@@H]1CC=C(C)[C@@H]2CC=C(C)[C@H]2[C@@H]1O : what is it?
Response: 1.4

Request: Reported hemolysis at 2000 µM for C=C1C[C@@H](O)[C@@H]([C@H](C)CCC=C(C)C)[C@@H](O)[C@@H]2C(C)=CC[C@@H]12 : what is it?
Response: 1.1

Request: Reported hemolysis at 2000 µM for C=C1CC[C@H](O)[C@]2(C)C[C@H](OC(C)=O)C3=C(C(C)C)[C@H](OC(C)=O)C[C@@]3(C)C[C@@]12O [AMIJIOL-7,10-DIACETATE] : what is it?
Response: 1.4
